measurement protocol: Henry solubility constant Hcp at 298.15 K (mol/(m3 Pa))
reported conditions: reference: Shiu and Mackay (1997)
Provide the reported Henry solubility constant Hcp of each item.
Numbers only.

Completed entries (count: 8):
structure string	Henry solubility constant Hcp
CC(=O)c1ccccc1	0.93
Clc1ccc(Cl)cc1	0.0041
Clc1ccccc1	0.0032
Brc1ccccc1	0.004
CCCC(C)=O	0.12
Clc1cccc2ccccc12	0.028
c1cc2c3c(cccc3c1)CC2	0.062
CCCCCC(C)=O	0.058

Hey, can you go through the list below and give me Henry solubility constant Hcp for every item?
1. c1ccc(-c2ccccc2)cc1
2. Clc1ccc2ccccc2c1
3. Cc1cccc2c(C)cccc12
4. Cc1cccc2ccccc12
5. CC(C)CO

Ans.
1. 0.032
2. 0.03
3. 0.028
4. 0.041
5. 0.37

====

measurement protocol: Henry solubility constant Hcp at 298.15 K (mol/(m3 Pa))
reported conditions: reference: Shiu and Mackay (1997)
test readout: Henry solubility constant Hcp
Numbers only.

Completed entries (count: 2):
structure string	test readout	value
c1ccc2c(c1)Cc1ccccc1-2	Henry solubility constant Hcp	0.1
c1ccc2c(c1)ccc1ccccc12	Henry solubility constant Hcp	0.28

Hey, can you go through the list below and give me Henry solubility constant Hcp for every item?
1. Clc1cccc(Cl)c1Cl
2. c1ccc2cc3ccccc3cc2c1
3. Clc1cc(Cl)c(Cl)c(Cl)c1
4. c1ccc2ccccc2c1
5. CCCCCCCO

Ans.
[0.0079, 0.13, 0.0063, 0.022, 0.18]

meta.source: Sander's compilation of Henry's law constants (doi:10.1021/je960218u)
